- Test system: MOLT-4
- TEST_NAME: NCI tumour cell line growth inhibition, 48 h
Calls of active or inactive are those of the source. Cut-off read from the data, not from the text of the source: active = GI50 up to about 1.1 µM and inactive = higher.
Outcome codes: active, inactive

COMPOUND	GROUP
OC1[C@H]([C@H]2CCCC[C@@H]2O)CCC[C@@H]1[C@@H]1CCCC[C@H]1O (stereo partly specified)	inactive
N=c1oc2ccc3ccccc3c2cc1-c1nc(O)c2ccccc2n1	inactive
Cc1cc2cc3ccccc3cc2c(=O)[nH]1	inactive
C=CC(Br)(CBr)CCC(Br)C(C)(C)Br (stereo unspecified)	inactive
C=C1CC2(CC(c3ccccc3Cl)OC(c3ccccc3Cl)C2)OC1=O (stereo unspecified)	inactive
CCCCn1c2c(n(CCCC)c1=S)-c1c(n(CCCC)c(=S)n1CCCC)SSc1c(n(CCCC)c(=S)n1CCCC)-c1c(n(CCCC)c(=S)n1CCCC)SSc1c(n(CCCC)c(=S)n1CCCC)-c1c(n(CCCC)c(=S)n1CCCC)SS2	inactive
O=C1C=CC2(O[C@H](c3ccccc3)[C@@H](c3ccccc3)O2)C(SC(=O)c2ccccc2)C1 (stereo partly specified)	active
CC1=C(C(=O)Nc2ccccc2)C(c2ccc(N(C)C)cc2)C(C(=O)Nc2ccccc2)=C(C)N1	inactive
CC1OC(OCC2COC(O)(Oc3c(-c4ccc(O)c(O)c4)oc4cc(O)cc(O)c4c3=O)C(O)C2O)C(O)C(O)C1O (stereo unspecified)	inactive
Cn1c(=O)c2c3ccccc3c(C(=O)c3ccccc3)n2c2ccccc21	inactive
NNC(=S)N1CCN(C(=S)NN)CC1	inactive
c1ccc2c(c1)CCN1CCc3ccccc3C1C2 (stereo unspecified)	inactive
COc1ccccc1N/C(=C\C(=O)C(=O)NC12CC3CC(CC(C3)C1)C2)c1ccccc1	inactive
C=C1C(=O)O[C@@H]2[C@H]1CC[C@H](C)[C@]1(O)CCC(=O)[C@@]21C [CORONOPILIN]	inactive
COc1cc(CSc2ccc(O)cc2)cc(OC)c1OC	inactive
CCCCCNC(=O)c1cc2cc(CCl)ccc2oc1=O	inactive
COC(=O)c1ccc(/C=C2\Oc3ccccc3C2=O)cc1	inactive
COc1ccc(NC(=O)CCc2cc(-c3ccc(O)c(OC)c3)nc(NC#N)n2)cc1	inactive
Cc1nn(-c2ccccc2)c(-c2ccccc2[N+](=O)[O-])c1CC#N	inactive
Cc1ccc(NC(=O)CC(=O)n2nc(-c3ccccc3)c(/N=N/c3ccc(Cl)cc3)c2-c2ccccc2)cc1	inactive
O=C1c2ccccc2OCC12OC21C=CC(Cl)=CC1 (stereo unspecified)	active
CC1(C)C2CC(=O)C1(C)C(OCc1ccccc1)C2 (stereo unspecified)	inactive
CO[C@H]1O[C@@H]2OC3(C)CCC4[C@H](C)CCC([C@H]1C)[C@]42OO3 (stereo partly specified)	inactive
c1cc(-c2cnc(-c3ccc4c(c3)CCCO4)o2)ccn1	inactive
O=C1OC(c2ccc(O)c(F)c2)(c2ccc(O)c(F)c2)c2cccc3cccc1c23	inactive
C#C[C@]1(O)CCCC2=CC(=O)CC[C@@]21C	inactive
CCCN1CC=C(c2cc(C(=O)OCC)[nH]c2-c2cc(C)no2)C1=O	inactive
CCCCCCCCCCCCCCCCCC(=O)Nc1ccn(C2CCC(COP(=O)(O)O)O2)c(=O)n1 (stereo unspecified)	inactive
CCC1C(c2cc(OC)c(OC)c(OC)c2)c2cc3c(cc2OC1N1CCOCC1)OCO3 (stereo unspecified)	inactive
CC(C)C[C@H](NC(=O)[C@@H](Cc1cccc2ccccc12)NC(=O)N1CCOCC1)B(O)O	inactive
CCOC(=O)C1CCC(=O)N1C(=O)c1ccc(Cl)cc1 (stereo unspecified)	inactive
O=C(N/C(=C/c1ccc(Cl)cc1Cl)c1nc2ccccc2s1)c1ccccc1	inactive
O=C(NC(Nc1ccc(F)c(Cl)c1)(C(F)(F)F)C(F)(F)F)C(C(F)(F)F)C(F)(F)F	inactive
O=C(NO)NCCCl	inactive
CC1=C(C2=C(C)C(=O)C(=O)c3cc(C)ccc32)c2ccc(C)cc2C(=O)C1=O	active
CCOC(=O)C(C)(C)Oc1ccc2c(-c3ccc(Cl)cc3)c(-c3ccc(Cl)cc3)c(=O)oc2c1	inactive
CC(Br)CN(CC(C)Br)c1ccc2c(c1)Cc1ccccc1-2 (stereo unspecified)	inactive
COc1ccc(-c2oc(/C=N/c3ccccc3)c([N+](=O)[O-])c2-c2ccc(OC)c(OC)c2)cc1OC	inactive
O=C(O)CCSC(=O)Nc1ccc([N+](=O)[O-])cc1	inactive
COc1cc([N+](=O)[O-])ccc1NC(=O)c1cccc([N+](=O)[O-])c1O	inactive
COc1ccc2c(c1)c1c(n2CCN(C)C)-c2cccc(OC)c2CC1	inactive
